These entries and their values trace back to patent US12516022B2.

Test: Time course of conversion to indirubin in FaSSIF at 37° C.
Format: physicochemical
Conditions: FaSSIF 37° C. 24 h
RESULT_TYPE: indirubin (%)
Field: numeric (%). Do not append units.

Ask: Could you share which indirubin value was measured for O=C1/C(=C2/C(=O)N(COS(=O)(=O)O)c3ccccc32)Nc2ccccc21 [drawing 262] ?
Reply: 12

Ask: Next record, please: CN1CCN(CN2C(=O)/C(=C3\Nc4ccccc4C3=O)c3ccccc32)CC1 [drawing 265]
Reply: 30

Ask: Next record, please: CN(C)CCN(CCN(C)C)CN1C(=O)/C(=C2\Nc3ccccc3C2=O)c2ccccc21 [drawing 257]
Reply: 74

----------
Assay: Time course of conversion to indirubin in FaSSGF at 37° C.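 Further: compound incubated in fasted state simulated gastric fluid, species in samples quantified by UPLC-MS with UV (210–400 nm) and ELS detection.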
Type: physicochemical
Conditions: FaSSGF (Example 4; table title prints FaSSIF) 37° C., 1 h
RESULT_TYPE: starting material (prodrug compound) (%)
Field: numeric (%). Do not append units.

The following compounds have reported results that may help.
INSERT INTO measurements (compound, result_type, measured_value) VALUES
  ('CN1CCN(CN2C(=O)/C(=C3\Nc4ccccc4C3=O)c3ccccc32)CC1 [drawing 273]', 'starting material (prodrug compound)', 74),
  ('O=C1/C(=C2/C(=O)N(CO)c3ccccc32)Nc2ccccc21 [drawing 274]', 'starting material (prodrug compound)', 0);

Ask: Could you share which starting material (prodrug compound) value was measured for O=C1/C(=C2/C(=O)N(CN3CCCC3)c3ccccc32)Nc2ccccc21 [drawing 270] ?
Reply: 0

Ask: Next record, please: O=C1/C(=C2/C(=O)N(CN3CCCCC3)c3ccccc32)Nc2ccccc21 [drawing 269]
Reply: 1

----------
The following compounds are listed with their measured indirubin methylene alcohol values.
Assay: Time course of conversion to indirubin in FaSSIF at 37° C.
Type: physicochemical
Details: FaSSIF 37° C., 30 min
Field: numeric (%). Do not append units.

The following compounds have reported results that may help.
INSERT INTO assay_data (compound, measured_value) VALUES
  ('O=C1/C(=C2/C(=O)N(CN3CCC3)c3ccccc32)Nc2ccccc21 [drawing 266]', 5),
  ('O=C1/C(=C2/C(=O)N(C(=O)NC3CCOCC3)c3ccccc32)Nc2ccccc21 [drawing 263]', 0);

# context switch: different compound, same indirubin methylene alcohol
Ask: Could you share which indirubin methylene alcohol value was measured for CN1CCN(CN2C(=O)/C(=C3\Nc4ccccc4C3=O)c3ccccc32)CC1 [drawing 265] ?
Reply: 0

----------
Test: Time course of conversion to indirubin in FaSSIF at 37° C.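 Further: test compound, about 1-3 mg in 5 mL FaSSIF, sampled and analysed by UPLC-MS with PDA UV (210-400 nm), QDa mass and evaporative light scattering detection.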
Assay type: physicochemical
Conditions: FaSSIF 37° C., 1 h
RESULT_TYPE: indirubin (%)
Field: numeric (%). Do not append units.

INSERT INTO measurements (compound, result_type, unit_abbrev, measured_value) VALUES
  ('O=C1/C(=C2/C(=O)N(CN3CCC(F)(F)CC3)c3ccccc32)Nc2ccccc21 [drawing 260]', 'indirubin', '%', 18);

Ask: Could you share which indirubin value was measured for CN(C)CCN(CCN(C)C)CN1C(=O)/C(=C2\Nc3ccccc3C2=O)c2ccccc21 [drawing 257] ?
Reply: 78

Ask: Next record, please: CN1CCN(CN2C(=O)/C(=C3\Nc4ccccc4C3=O)c3ccccc32)CC1 [drawing 265]
Reply: 11

Ask: Next record, please: O=C1/C(=C2/C(=O)N(C(=O)NC3CCOCC3)c3ccccc32)Nc2ccccc21 [drawing 263]
Reply: 5

Ask: Next record, please: O=C1/C(=C2/C(=O)N(COS(=O)(=O)O)c3ccccc32)Nc2ccccc21 [drawing 262]
Reply: 7

Ask: Next record, please: CCN(CC)CN1C(=O)/C(=C2\Nc3ccccc3C2=O)c2ccccc21 [drawing 252]
Reply: 100
